human eIF4E protein (Homo sapiens) data, read-out IC50
Sequence (P06730 whole entry): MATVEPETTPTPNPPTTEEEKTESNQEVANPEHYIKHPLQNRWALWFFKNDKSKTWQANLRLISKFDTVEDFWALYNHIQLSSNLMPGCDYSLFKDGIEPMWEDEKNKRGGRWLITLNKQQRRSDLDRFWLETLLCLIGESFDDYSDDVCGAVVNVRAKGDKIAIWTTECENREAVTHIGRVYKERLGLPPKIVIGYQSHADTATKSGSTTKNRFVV

A selection of reference data follows.
compound: Cc1cc(-c2cc(Cl)c(=O)[nH]c2OCCn2c(C)nc3c(c2=O)CC(N(C)CC2CC(F)(F)C2)CC3)c2scc(C(=O)O)c2n1 (single isomer, unassigned) [Compound 237]
tgt: human eIF4E protein (Homo sapiens)
IC50: 500 to 5000 nM
//
compound: Cc1cc(-c2cc(Cl)ccc2OCCn2c(C)nc3c(c2=O)CC(N(C)C2CCCC2(F)F)CC3)c2scc(C(=O)O)c2n1 (single isomer, unassigned)
tgt: human eIF4E protein (Homo sapiens)
IC50: < 100 nM
//
compound: CC(=O)N(C)C1CCc2nc(C)n(CCOc3ccc(Cl)cc3-c3cccc(C(=O)O)c3)c(=O)c2C1 (centres unmarked)
tgt: human eIF4E protein (Homo sapiens)
IC50: 500 to 5000 nM

Answer with reported IC50 of Cc1cc(-c2cc(Cl)ccc2OCCn2c(C)nc3c(c2=O)C[C@@H](N2CCCC(F)(F)CC2)CC3)c2scc(C(=O)O)c2n1 (single isomer, unassigned) < 100 nM

Answer with reported IC50 of Cc1cc(-c2cc(Cl)ccc2OCCn2c(C)nc3c(c2=O)C[C@@H](N(C)[C@H]2CC[C@](C)(O)CC2)CC3)c2scc(C(=O)NS(C)(=O)=O)c2n1 (single isomer, unassigned) < 100 nM

Answer with reported IC50 of Cc1cc(-c2cc(Cl)ccc2OCCn2c(C)cc3c(c2=O)CC2(CC3)CN(C)C2)c2scc(C(=O)O)c2n1 < 100 nM

====

Tested on: COLO 205 colorectal tumor cells
Assay: Tumor cell viability inhibition assay (CellTiter-Glo 2.0, 72 hours)
Assay type: cell-based
Conditions: Homo sapiens, COLO 205, 72 h, COLO 205 cell viability
outcome.measure: IC50

compound: Cc1cc(-c2cc(Cl)ccc2OCCn2c(C)nc3c(c2=O)CC(N2CC(F)(F)C4(CC4)C2)CC3)c2scc(C(=O)O)c2n1 (centres unmarked) [Compound 279]
IC50: < 5 µM

compound: Cc1nc2c(c(=O)n1CC#Cc1ccc(Cl)cc1-c1ccnc3c(C(=O)O)csc13)CC(N(C)Cc1ccncc1)CC2 (centres unmarked) [Compound 351]
IC50: < 5 µM

compound: Cc1cc(-c2cc(Cl)ccc2OCCn2c(C)nc3c(c2=O)C[C@H](N(C)[C@H]2CC[C@@](C)(O)CC2)CC3)c2scc(C(=O)NS(C)(=O)=O)c2n1 (single isomer, unassigned) [Compound 214]
IC50: > 20 µM

compound: Cc1cc(-c2cc(Cl)ccc2OCCn2c(C)nc3c(c2=O)C[C@H](N2CC[C@H](C(F)F)C2)CC3)c2scc(C(=O)O)c2n1 (single isomer, unassigned) [Compound 122]
IC50: < 5 µM

compound: Cc1cc(-c2cc(Cl)ccc2OCCn2c(C)nc3c(c2=O)C[C@H](N2CCC[C@@H](c4ccn(C)n4)C2)CC3)c2scc(C(=O)O)c2n1 (single isomer, unassigned) [Compound 447]
IC50: 5 to 20 µM

compound: Cc1nc2c(c(=O)n1CCOc1ccc(Cl)cc1-c1cccc(C(=O)O)c1)CC(N(C)C)CC2 (centres unmarked) [Compound 1]
IC50: 5 to 20 µM

compound: CC(=O)N(C)C1CCc2nc(C)n(CCOc3ccc(Cl)cc3-c3cc(C)nc4c(C(=O)O)csc34)c(=O)c2C1 (centres unmarked) [Compound 38]
IC50: > 20 µM

compound: Cc1cc(-c2cc(Cl)ccc2OCCn2c(C)nc3c(c2=O)CC(N2CC4(C2)CC(O)(C(F)(F)F)C4)CC3)c2scc(C(=O)O)c2n1 (centres unmarked) [Compound 195]
IC50: > 20 µM

Answer with reported IC50 of Cc1cc(-c2cc(Cl)ccc2OCCn2c(C)nc3c(c2=O)CC(C)(N(C)CC2CC(F)(F)C2)CC3)c2scc(C(=O)O)c2n1 (single isomer, unassigned) [Compound 599] 5 to 20 µM

Answer with reported IC50 of Cc1cc(-c2cc(Cl)c(=O)[nH]c2OCCn2c(C)nc3c(c2=O)CC(N(C)C2CC2)CC3)c2scc(C(=O)O)c2n1 (single isomer, unassigned) [Compound 233] > 20 µM

Answer with reported IC50 of Cc1cc(-c2cc(Cl)ccc2OCCn2c(C)nc3c(c2=O)CC(N2CCC(OC(F)(F)F)CC2)CC32CC2)c2scc(C(=O)O)c2n1 (single isomer, unassigned) [Compound 379] < 5 µM

====

Tested on: COLO 205 colorectal tumor cells
Assay: Tumor cell viability inhibition assay (CellTiter-Glo 2.0, 72 hours)
Format: cell-based
Details: Homo sapiens, COLO 205, 72 h, COLO 205 cell viability
outcome.measure: IC50

A selection of reference data follows.
compound: Cc1cc(-c2cc(Cl)ccc2OCCn2c(C)nc3c(c2=O)C[C@H](N2CCC[C@H](C(F)F)C2)CC3)c2scc(C(=O)O)c2n1 (single isomer, unassigned)
IC50: < 5 µM

compound: Cc1cc(-c2cc(Cl)ccc2OCCn2c(C)nc3c(c2=O)C[C@H](N2CCC(Oc4ccc(F)cc4F)CC2)CC3)c2scc(C(=O)O)c2n1 (single isomer, unassigned)
IC50: < 5 µM

compound: Cc1cc(-c2cc(Cl)ccc2OCCn2c(C)nc3c(c2=O)C[C@H](N2CCC(COC(F)(F)F)CC2)CC3)c2scc(C(=O)O)c2n1 (single isomer, unassigned)
IC50: < 5 µM

compound: Cc1cc(-c2cc(Cl)ccc2OCCn2c(C)nc3c(c2=O)CC(N(C2CCC2)C2CC2)CC3)c2scc(C(=O)O)c2n1 (stereo not shown)
IC50: < 5 µM

compound: Cc1cc(-c2cc(Cl)ccc2OCCn2c(C)nc3c(c2=O)CC(N(C)C(=O)C2CCN(C)CC2)CC3)c2scc(C(=O)NS(C)(=O)=O)c2n1 (stereo not shown)
IC50: > 20 µM

compound: Cc1cc(-c2cc(Cl)ccc2OCCn2c(C)nc3c(c2=O)CC(N(C)C2CC2)CC3)c2sccc2n1 (single isomer, unassigned)
IC50: 5 to 20 µM

compound: Cc1cc(-c2cc(Cl)ccc2OCCn2c(C)nc3c(c2=O)C[C@H](N2CCC(COC(F)(F)F)CC2)CC32CC2)c2scc(C(=O)O)c2n1 (single isomer, unassigned)
IC50: < 5 µM

compound: Cc1cc(-c2cc(Cl)ccc2OCCn2c(C)nc3c(c2=O)C[C@H](N2CC[C@@H](C(F)F)C2)CC3)c2scc(C(=O)O)c2n1 (single isomer, unassigned)
IC50: < 5 µM

compound: Cc1cc(-c2cc(Cl)ccc2OCCn2c(C)nc3c(c2=O)CC(N2CCC(C)(O)CC2)CC3)c2scc(C(=O)O)c2n1 (stereo not shown)
IC50: > 20 µM

compound: Cc1cc(-c2cc(Cl)ccc2OCCn2c(C)nc3c(c2=O)CC(N2CCCC(F)(F)C2)CC3)c2scc(C(=O)NS(C)(=O)=O)c2n1 (stereo not shown)
IC50: < 5 µM

Answer with reported IC50 of COC(=O)c1csc2c(-c3cc(Cl)ccc3OCCn3c(C)nc4c(c3=O)CC(N(C3CC3)C3CC3)CC4)cc(C)nc12 (stereo not shown) 5 to 20 µM

Answer with reported IC50 of Cc1cc(-c2cc(Cl)ccc2OCCn2c(C)nc3c(c2=O)C[C@@H](N2CC[C@@H](F)C2)CC3)c2scc(C(=O)O)c2n1 (single isomer, unassigned) < 5 µM

Answer with reported IC50 of Cc1cc(-c2cc(Cl)ccc2OCCn2c(C)nc3c(c2=O)CC(N2CCC(c4ccc(F)cc4)CC2)CC3)c2scc(C(=O)O)c2n1 (stereo not shown) < 5 µM

Answer with reported IC50 of Cc1nc2c(c(=O)n1CC#Cc1ccc(Cl)cc1-c1ccnc3c(C(=O)O)csc13)CC(N1CCC(OC(F)(F)F)CC1)CC2 (single isomer, unassigned) < 5 µM

Answer with reported IC50 of COC1(C(F)(F)F)CCN([C@H]2CCc3nc(C)n(CCOc4ccc(Cl)cc4-c4cc(C)nc5c(C(=O)O)csc45)c(=O)c3C2)CC1 (single isomer, unassigned) < 5 µM

Answer with reported IC50 of Cc1cc(-c2cc(Cl)ccc2OCCn2c(C)nc3c(c2=O)C[C@@H](N2CCC4(CCCO4)CC2)CC3)c2scc(C(=O)O)c2n1 (single isomer, unassigned) < 5 µM

Answer with reported IC50 of Cc1cc(-c2cc(Cl)ccc2OCCn2c(C)nc3c(c2=O)C[C@@H](N2CCC[C@H](c4ccn(C)n4)C2)CC3)c2scc(C(=O)O)c2n1 (single isomer, unassigned) < 5 µM

Answer with reported IC50 of Cc1cc(-c2cc(Cl)ccc2OCCn2c(C)nc3c(c2=O)C[C@H](N2CCC(n4cc(Cl)cn4)CC2)CC3)c2scc(C(=O)O)c2n1 (single isomer, unassigned) < 5 µM

Answer with reported IC50 of COC1CN(C2CCc3nc(C)n(CCOc4ccc(Cl)cc4-c4cc(C)nc5c(C(=O)O)csc45)c(=O)c3C2)C1 (stereo not shown) < 5 µM

Answer with reported IC50 of Cc1cc(-c2cc(Cl)ccc2OCCn2c(C)nc3c(c2=O)CC(N(C)C2CC2)CC3)c2scc(C(=O)O)c2n1 (single isomer, unassigned) [Compound 335] < 5 µM

Answer with reported IC50 of Cc1cc(-c2cc(Cl)ccc2OCCn2c(C)nc3c(c2=O)CC(N2CCC(C(F)(F)F)CC2)CC3)c2scc(C(=O)NS(C)(=O)=O)c2n1 (single isomer, unassigned) < 5 µM

Answer with reported IC50 of Cc1cc(-c2cc(Cl)ccc2OCCn2c(C)nc3c(c2=O)C[C@@H](N(C)CC2CC(F)(F)C2)CC32CC2)c2scc(C(=O)O)c2n1 (single isomer, unassigned) < 5 µM

Taken from patent US20240246918A1.
